TEST DETAILS: blockers of DNA damage checkpoint Chk1 activation – imaging, HeLa, hydroxyurea, phospho-Chk1 nuclear intensity, primary screen (AID 1187); note: test concentration not given here
TEST CONTEXT: hydroxyurea-induced phospho-Chk1 immunofluorescence imaging, higher = more signal
Quick rule for you: z-score at -0.06 or higher means 1, lower means -1.

Some entries whose results are on file:
CC(C)C(CO)N1C(=O)[C@@H]2[C@H]3C(=O)OCC=C[C@H]3OC23C=CCN(c2ccc4ccccc4c2)C(=O)[C@@H]13 (stereo partly drawn): 1
C=CCC(OC(C)=O)[C@@H]1[C@@H](N(Cc2cc3ccccc3o2)C(=O)c2cccc3ccccc23)c2cc(OCCCO)ccc2N1C(=O)Cc1ccc(OC)cc1 (stereo partly drawn): 1
CCCC[C@H]1OB(O)C[C@H]2C1=C(C)Cn1c(=O)n(-c3ccccc3)c(=O)n12: -1
CN(C)CCCC[C@@H]1NC(=O)[C@@H]2C[C@H](C(=O)NCCCCCCN)[C@H](c3ccc(O)cc3)N2C1=O: -1
Cc1cccc(/C=C/C=O)c1: 1

Q. Record Cc1ccc(S[C@]2(C(=O)NCCCN(C)C)CC(=O)N(C(C)C)[C@@H]2c2ccc(CO)cc2I)cc1 ; criterion: z-score no lower than -0.06. Met?
A. 1

Q. Record Cc1ccc(N2C(=O)c3ccccc3[C@](C)(C(=O)NCCN3CCOCC3)[C@@H]2c2ccc(CO)cc2)nc1 ; criterion: z-score no lower than -0.06. Met?
A. -1
